Reference source: patent US20080242688A1

assay: Single oral dose pharmacokinetics in healthy human volunteers; assay type: in vivo; conditions: human, plasma; single oral dose 2 mg, geometric mean
measured-property: half-life (h)
Answer format: numeric, h implied, no suffix.

Lookup: // lookup half-life for c1cnc2c(c1)C[C@@]1(CN3CCC1CC3)O2 [AZD0328]
Found: 5.6

---

Experiment: Multiple dose PK/TK, rabbit
Type: in vivo
Conditions: female, New Zealand White, in vivo, sc; rabbit 3F, DMB15, subcutaneous 0.115 mg/kg (0.3 μmol/kg), day 18
Source text: This section provides a summary of the pharmacokinetic and metabolism properties of AZD0328 derived from in vivo studies. […] The derived PK/TK parameters from these studies are presented in Table 4 for single dose studies (DMR4, 0619LR, 20030191PCR, DMO16, DMB10, DMW12, 50190, 0190DD and 03.330/1), and are presented in Table 5 multiple dose PK/TK studies (DMR4, 0612AR, DMB15, 50190, 0190DD and 0295AD).
measured-property: Tmax

Lookup: // lookup Tmax for c1cnc2c(c1)C[C@@]1(CN3CCC1CC3)O2 [AZD0328]
Found: 19 to 58.2 min
